B1: Osa-1-4 twister ribozyme (parent)
chain: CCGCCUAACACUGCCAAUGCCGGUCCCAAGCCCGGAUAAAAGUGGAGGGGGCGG

Variants of: B1
Assay: self-cleavage, relative activity (ratio to wild type); higher = more cleavage; co-transcriptional
Measured Property: self-cleavage
Give bare numbers.

The following variants have reported results that may help.
{"columns": ["Mutation List", "Recorded Result"],
 "data": [
  ["C14G U18C", 0.15],
  ["C27U G53C", 0.05],
  ["G54A U18G", 0.71],
  ["A46C U43G", 0.05],
  ["C9A G23C", 0.01]
]}

Count: 5. Required value per item: self-cleavage.
1. C20G C31U
2. A29U U37A
3. A16G G47C
4. A16U G44U
5. G23U G30A

Result:
0.07
0.16
0.2
0.92
0.02

Give self-cleavage for all variants that follow.
1. C20G C21U
2. C21G C27A

Result:
1: 0.29; 2: 0.04

Fill in self-cleavage for each of the 2 variants listed.
1. C15A G13U
2. A41U G34C

Result:
1. 0.02
2. 0.47

Parameter requested: self-cleavage. Apply to each item below.
1. G13A G42U
2. A36G G34C
3. A29C C52A
4. G53A G54U
5. G49A G50A

Result:
1: 0.02; 2: 0.31; 3: 0.06; 4: 0.79; 5: 0.27

Data provenance: the RNAGym collection of RNA variant scans (doi:10.1002/anie.201605470)
